# TGI per record follows
Tested on: HCC-2998 colon
Test: NCI tumour cell line growth inhibition, 48 h
measured property: TGI (µM)

>>> observed("N#CC1(C#N)C2(c3ccccc3)OC(c3ccccc3)(c3cc4ccccc4cc32)C1(C#N)C#N")
33.8
>>> observed("C=C[C@@]1(C)CC[C@@H]2[C@@]3(C1)O[C@H]3CC1[C@](C)(C(=O)OC)CCC[C@@]12C (stereo not given in full)")
31.6
>>> observed("COc1ccc(-c2nn(-c3cccc(Cl)c3)cc2-c2cc(-c3cccs3)[nH]c(=S)n2)cc1")
16.4
>>> observed("C=C(CN1C(=O)CN(C)C1=O)c1ccc(C(=O)Nc2ccccc2N)cc1")
54.3

====

Tested on: NCI-H23 lung
Assay: NCI tumour cell line growth inhibition, 48 h
measured property: TGI

>>> observed("C=C(C)[C@@H]1CC[C@]2(C)CC[C@]3(C)[C@H](CC[C@@H]4[C@@]5(C)CC[C@H](O)C(C)(C)[C@@H]5CC[C@]43C)[C@@H]12")
"> 100 µM"
>>> observed("N=C1C(c2nc3ccccc3s2)=C(O)CN1c1ccc(F)c(Cl)c1")
"> 100 µM"
>>> observed("O=C(Nc1ccc([As](=O)(O)O)cc1)Nc1cccc(Cl)c1Cl")
"> 100 µM"

====

Test system: MDA-MB-435
Assay: NCI tumour cell line growth inhibition, 48 h
measured property: TGI

>>> observed("CC(=O)N1C(OC(C)C)CC(C)N1c1ccccc1 (stereo not drawn)")
"> 10 µM"
>>> observed("CCOC(=O)c1nnsc1NC(=O)Nc1ccc(Cc2ccc(NC(=O)Nc3snnc3C(=O)OCC)cc2)cc1")
"> 100 µM"
>>> observed("COc1cccc(N2CCN(CC(=O)N3CCN(c4nnc(-c5ccc(Cl)cc5)c(-c5ccc(Cl)cc5)n4)CC3)CC2)c1")
"> 100 µM"

====

Test system: MALME-3M melanoma
Assay: NCI tumour cell line growth inhibition, 48 h
measured property: TGI

>>> observed("CC1(C)C2CCC13C(=O)C1OC3(C2)C2C(=O)c3cc4ccccc4cc3C(=O)C12 (centres undefined)")
"43.8 µM"
>>> observed("CC1OC(OC2C(O)COC(OC3C(C)OC(OC4C(OC(=O)[C@]56CCC(C)(C)C[C@@H]5C5=CCC7[C@@]8(C)C[C@H](O)[C@H](OC9OC(CO)C(O)C(OC%10OC(CO)C(O)C(O)C%10O)C9O)[C@@](C)(CO)[C@@H]8CC[C@@]7(C)[C@]5(C)CC6)OCC(O)C4O)C(O)C3OC3OCC(O)(CO)C3O)C2O)C(O)C(O)C1O (some centres undefined)")
"13.2 µM"
>>> observed("CC(C)Cn1cnc2c(SCc3ccc(Cl)cc3Cl)nc(N)nc21")
"71.6 µM"
>>> observed("CN1CCc2c3n(c4cc(Br)ccc24)[C@H](O)CCCC31 (some centres undefined)")
"4.63 µM"
>>> observed("CCOC(=O)c1nn2c(nc1=O)sc1ccc3ccccc3c12")
"> 100 µM"
>>> observed("O=[N+]([O-])c1ccc(C[P+](c2ccccc2)(c2ccccc2)c2ccccc2)cc1")
"> 100 µM"
>>> observed("COC(=O)C1CC2CCC1(O[Si](C(C)C)(C(C)C)C(C)C)C(O)C2 (centres undefined)")
"> 100 µM"
>>> observed("CCCCCCCCCCCc1nnc(N)o1")
"> 100 µM"
>>> observed("Cc1ccc(NCC(=O)N2CC(=O)Nc3ccccc32)c(C)c1")
"> 100 µM"
>>> observed("[N-]=[N+]=NC(CCl)c1cn([C@H]2C[C@H](O)[C@@H](CO)O2)c(=O)[nH]c1=O (some centres undefined)")
"> 100 µM"
>>> observed("O=C1N(C2CCCCC2)CC12CCCCC2")
"> 100 µM"
>>> observed("CC(=O)OC/C=C/[C@H](O[Si](C)(C)C(C)(C)C)[C@@H](O)/C=C/COC(C)=O")
"> 100 µM"
>>> observed("CN1CC[C@]23c4c5ccc(O)c4O[C@H]2C(O)CC[C@@]3(O)[C@H]1C5 (some centres undefined)")
"> 100 µM"
>>> observed("COC(=O)C(Cc1ccccc1)NP(=O)(O)OCC1OC(n2cc(Br)c(=O)[nH]c2=O)CC1O (centres undefined)")
"> 100 µM"
